Give measured Inhibition for each item. Keep answers brief.
# System: HepG2
# assay-protocol: GSK_TCMDC: Percent inhibition of human HepG2 cell line. Test compounds present at 10uM.
# Format: functional
Give bare numbers, in %.

# compound, unit-string, Inhibition
data = [
    ("CN1CCC(N(Cc2ccc(-c3cnc(NCc4ccccc4)nc3)cc2)S(=O)(=O)c2ccccc2)CC1.O=C(O)C(F)(F)F", "%", 48),
    ("COc1ccc2nccc(N/N=C/c3ccc([N+](=O)[O-])cc3)c2c1", "%", 9),
]

For each entry beneath this line, provide reported Inhibition.
1. CCCCCCCN1CC[C@@H](CCCc2ccnc3ccc(OCCN4CCOCC4)cc23)[C@@H](CC)C1.O=C(O)C(=O)O
2. CC(C)(C)c1ccc(NC(=O)Nc2ccc(Cn3ncc(N4CCCNCC4)c(Cl)c3=O)cc2)cc1.O=C(O)C(F)(F)F

### Response
1: 14; 2: 0

# per-item lookup of Inhibition; items listed below
1. O=C(Nc1ccc(S(=O)(=O)N2CCCCCC2)cc1)c1cc(-c2ccccc2O)n[nH]1
2. O=C(Nc1cccc(Cl)c1)N[C@H]1CCN(Cc2ccc(OCCCN3CCCCC3)cc2)C1
3. COc1ccccc1C1CC(c2ccccc2)=NN1C(=O)c1ccccc1 (centres undefined)
4. CC(=O)Nc1[nH]c(-c2ccccc2)nc1C(N)=O
5. Br.CC(=O)Nc1nc(C)c(-c2csc(Nc3ccc(Cl)cc3)n2)s1

### Response
1. 16
2. 15
3. 13
4. 10
5. 14

###

# Test system: HepG2
# assay-protocol: GSK_TCMDC: Percent inhibition of human HepG2 cell line. Test compounds present at 10uM.
# Type: functional
# binning rule on Inhibition: low = under 4%, mid = from 4% up to 20%, high = 20% and over

Observe how each entry below is paired with its result.
# compound, test-system, class-assignment
records = [
    ("Cl.Oc1cccc(Nc2ccnc3cc(-c4cc5ccccc5o4)ccc23)c1", "HepG2", "mid"),
    ("CCCCSc1ccc2nc(-c3c[nH]c4ccc(C#N)cc34)cn2c1", "HepG2", "low"),
    ("COc1ccc2nccc([C@@H](O)CN3CCC(NCc4ccc5c(c4)nnn5C(C)C)CC3)c2c1.O=C(O)C(=O)O", "HepG2", "mid"),
    ("COc1ccc(C(=O)Nc2ccc(Cl)cc2C(=O)Nc2ccncc2)cc1", "HepG2", "mid"),
    ("Cc1cc(=NN=Cc2ccccc2Cl)c2cccc(C)c2[nH]1", "HepG2", "mid"),
]

### Prompt Form field 'band' for O=C(NCCCNc1ccnc2cc(Cl)ccc12)c1ccccc1F
### Response mid

### Prompt Would you mind sorting Nc1c(Cl)cc(C(O)CNCCCCCCOCCc2ccc(CO)s2)cc1Cl.O=C(O)/C=C/C(=O)O (centres undefined) into the appropriate category?
### Response low

###

# System: HepG2
# assay-protocol: GSK_TCMDC: Percent inhibition of human HepG2 cell line. Test compounds present at 10uM.
# Format: functional
property-name: Inhibition (%)
Answers are plain numbers, in %.

# compound, test-system, property-name, data-value
records = [
    ("COc1ccc(-c2cc(C(F)(F)F)n3ncc(C(=O)Nc4cc(C)ccc4O)c3n2)cc1OC", "HepG2", "Inhibition", 2),
    ("COc1ccccc1CCNc1nc(C)cc(NCCC(=O)Nc2ccccc2)n1.O=C(O)C(F)(F)F", "HepG2", "Inhibition", 7),
    ("COc1ccc2nccc([C@@H](O)CN3CCC(NCc4cc5cccc(OCc6ccccc6)c5[nH]4)CC3)c2c1", "HepG2", "Inhibition", 13),
    ("Cc1ccccc1C1CCN(c2ncc(C(=O)Nc3ccccc3)cc2Cl)CC1.O=C(O)C(F)(F)F", "HepG2", "Inhibition", 29),
    ("O=C(NCc1cccc2ccccc12)c1ccc(CNC2CCN(Cc3ccccc3)CC2)cc1.O=C(O)C(F)(F)F", "HepG2", "Inhibition", 15),
]

Look up Inhibition for the entries below, preserving their order.
1. Cc1ccc(Nc2nc3cc(Nc4ccnc(Nc5cccc(CS(C)(=O)=O)c5)n4)ccc3o2)cc1.O=C(O)C(F)(F)F
2. COc1ccc2nccc([C@@H](O)CN3CCC(NCCOc4cccc(C(F)(F)F)c4)CC3)c2c1.O=C(O)C(=O)O
3. COc1cc(NC(=O)N2CCc3ccc(OCCC4CCCN4C)cc32)cc(C(F)(F)F)c1.O=C(O)C(F)(F)F (stereo not drawn)

### Response
55
16
5

# map each compound to its Inhibition
1. CC(=O)Nc1ccc(S(=O)(=O)Nc2ccc(Nc3nc(C)cc(N4CCCCC4)n3)cc2)cc1
2. CC1(C)CCC(C)(C)c2c1ccc(C1CCN(CCCCNC(=O)c3ccc(-c4ccc(C#N)cc4)cc3)CC1)c2O
3. O=C(O)C(F)(F)F.O=[N+]([O-])c1cccc(CNCC2CCC(CNCc3cccc([N+](=O)[O-])c3)CC2)c1 (stereo not drawn)

### Response
1. 23
2. 81
3. 39

###

# Test system: Plasmodium falciparum
# assay-protocol: GSK_TCMDC: Inhibition of Plasmodium falciparum 3D7 in whole red blood cells, using parasite LDH activity as an index of growth. Test compounds present at 2uM
# Format: functional
Kindly supply the reported Inhibition values for the records listed here.

Would you be so kind as to report Inhibition for each listed record?
1. Cc1cc(NC(=O)Nc2ccc3ncccc3c2)c2ccccc2n1
2. Cc1cc2c(cc1C(F)(F)F)N(C(=O)Nc1ccc(OCCN(C)C)c(C(F)(F)F)c1)CC2.Cl
3. CN(C)c1ccc(-c2ccc(C(=O)NC3CCN(Cc4ccc(C(C)(C)C)cc4)CC3)s2)cc1.O=C(O)C(F)(F)F
4. CC(C)Oc1cccc(-c2ccc(C(=O)NCC3CCCN(Cc4cccc(C(F)(F)F)c4)C3)s2)c1.O=C(O)C(F)(F)F (centres undefined)
5. COc1ccc(CN2CCN(CCCCNC(=O)c3ccc(NC(=O)c4ccc(Cl)cc4)cc3)CC2)c(OC)c1
6. CO/C(=C\C=C\c1cc2cc(Cl)c(Cl)cc2[nH]1)C(=O)NCCN1CCCCC1
7. Cl.Oc1ccccc1CNCC12CC3CC(CC(C3)C1)C2

### Response
1. 93%
2. 93%
3. 95%
4. 91%
5. 94%
6. 81%
7. 98%

I need Inhibition for every entry listed below, if you could help.
1. Nc1ccc(-c2cnc3[nH]cc(-c4ccc(C(=O)O)cc4)c3c2)cn1.O=C(O)C(F)(F)F
2. COc1cc(OC)nc(-c2cccc(NC(=O)c3ccc4c(=O)n(CCN5CCCCC5)cnc4c3)c2)n1

### Response
97%
100%

###

# Tested on: Plasmodium falciparum
# assay-protocol: GSK_TCMDC: Inhibition of Plasmodium falciparum Dd2 in whole red blood cells, using parasite LDH activity as an index of growth. Test compounds present at 2uM
# Assay type: functional
property-name: Inhibition (%)
Give bare numbers, in %.

Batch request: Inhibition per item, same order as input.
1. CCCCN(CCCC)Cc1cc(Nc2ccnc3cc(Cl)ccc23)ccc1O.Cl
2. O=C(CNCC1CCCCC1)Nc1cc(C(F)(F)F)ccc1Cl
3. CS(=O)(=O)c1cccc(-c2cnc3[nH]cc(-c4ccc(C(=O)O)cc4)c3c2)c1
4. CCN(CC)CCN(Cc1ccc(-c2ccc(C(F)(F)F)cc2)cc1)C(=O)Cn1c(CCc2ccc(F)c(F)c2)cc(=O)c2ccccc21.O=C(O)C(O)C(O)C(=O)O
5. Fc1cc(Cl)ccc1Nc1ccnc2cc(-c3ccc(CNCCN4CCOCC4)o3)ccc12
6. COc1ccccc1NC(=O)Nc1ccc(-c2ccc(-c3nc4cc(C(F)(F)F)ccc4[nH]3)cc2)cc1

### Response
1. 87
2. 67
3. 100
4. 26
5. 100
6. 61

Go through the items and report each one's Inhibition.
1. CC(=O)c1cc(N2CCCC2)ccc1N
2. CC(C)(C)Nc1cc(C2CC2)nc(-c2ccccn2)n1
3. COc1ccc2nccc([C@@H](O)CN3CCC(NC(=O)c4ccc(OC)c(N)c4)CC3)c2c1.CS(=O)(=O)O
4. O=[N+]([O-])c1cccc(-n2nc(NCc3ccc(Cl)cc3)nc2-c2ccc(F)c(C(F)(F)F)c2)c1
5. COc1cc(C=NN=c2cc(C)[nH]c3ccccc23)cc(OC)c1OC

### Response
1: 97; 2: 75; 3: 0; 4: 93; 5: 95

Please look at the items below and tell me Inhibition for each one, in order.
1. C[C@H](NC(=O)c1c(CN2CCN(C(=O)C(C)(C)C)CC2)c(-c2cccs2)nc2ccccc12)C1CCCCC1
2. CN(C)CCNC(=O)[C@H](CC1CCCCC1)NC(=O)c1ccc(O)c(-c2ccc(Cl)c(Cl)c2)c1
3. NS(=O)(=O)c1ccc(CNc2ccc3ncc(-c4ccc(Cl)cc4)n3n2)cc1
4. COc1ccccc1C(=O)Nc1cccc(N2CCC(NCc3ccc(-n4cccn4)cc3)CC2)c1

### Response
1. 62
2. 97
3. 99
4. 30

Can you give me Inhibition for all of these, one by one?
1. CCCCC(CCCC)CN1C(=O)C(c2ccccc2)(c2ccccc2)N=C1N.O=CO
2. CCOC(=O)c1ccc(NC(=O)Nc2cccc(-c3ccc(-c4nc5cccc(C)c5[nH]4)s3)c2)cc1
3. Nc1nccc2ccc(-c3ccc4nccn4c3)cc12.O=C(O)C(F)(F)F
4. Nc1cc2c(C3CCN(CC4CCN(C(=O)/C=C/c5ccc(Cl)c(Cl)c5)CC4)CC3)c[nH]c2cn1

### Response
96
99
100
94
